Below, each entry is listed alongside its reported pIC50.
Target: Human PD-L1/PD-1 (Homo sapiens)
Construct: made in house; host or cells: HEK293T
Sequence (Q9NZQ7 with tags, fused parts or gaps): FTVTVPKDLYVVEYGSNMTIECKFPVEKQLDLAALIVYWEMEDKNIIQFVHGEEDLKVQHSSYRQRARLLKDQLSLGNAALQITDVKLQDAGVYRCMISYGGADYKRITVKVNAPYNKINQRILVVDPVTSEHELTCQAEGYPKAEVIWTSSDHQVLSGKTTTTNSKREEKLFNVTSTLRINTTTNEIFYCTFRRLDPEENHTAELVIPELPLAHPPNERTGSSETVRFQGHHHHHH
Test: HTRF PD-1-Ig/PD-L1-His binding assay (human PD-L1)
Settings: cluster symbol; read-out: HTRF IC50 cluster
pIC50: −log10 of the molar value. Positions of bridges follow the written chain, without caps; N, C: chain ends. Non-standard residues stand in square brackets, D forms with d. Residues, ends and D or L forms follow the SMILES beside them. ξ: configuration not given here. Phe(3-F) = N[C@@H](Cc1cccc(F)c1)C(=O)O; Bta = N[C@@H](Cc1csc2ccccc12)C(=O)O; NMeF = CN[C@@H](Cc1ccccc1)C(=O)O; NMeNle = CCCC[C@H](NC)C(=O)O; NMeA = CN[C@@H](C)C(=O)O; ξC = NC(CS)C(=O)O; Sar = CNCC(=O)O

Compound | Reading
CCCC[C@H]1C(=O)N(C)CC(=O)N[C@@H](CC(=O)O)C(=O)N[C@@H](C(C)C)C(=O)N(C)[C@@H](Cc2ccccc2)C(=O)N[C@@H](Cc2ccc(O)cc2)C(=O)N(C)CC(=O)N[C@@H](Cc2c[nH]c3ccccc23)C(=O)N[C@@H](Cc2ccc(O)cc2)C(=O)N[C@@H](CC(C)C)C(=O)N[C@H](C(=O)NCC(N)=O)CSCC(=O)N[C@@H](Cc2cccc(F)c2)C(=O)N(C)[C@@H](Cc2ccccc2)C(=O)N1C [Example 3125] ({CH2CO}-[Phe(3-F)][NMeF][NMeNle][Sar]DV[NMeF]Y[Sar]WYLCG-NH2; thioether N-13) | 7.52 to 8.17

Entry under test: CCCC[C@H]1C(=O)N(C)[C@@H](C)C(=O)N[C@@H](CCCNC(=N)N)C(=O)NC(C(=O)NCC(N)=O)CSCC(=O)N[C@@H](Cc2ccc(O)cc2)C(=O)N(C)[C@@H](C)C(=O)N[C@@H](CC(N)=O)C(=O)N2CCC[C@H]2C(=O)N[C@@H](Cc2cnc[nH]2)C(=O)N[C@@H](CC(C)C)C(=O)N2CCC[C@H]2C(=O)N[C@@H](Cc2c[nH]c3ccccc23)C(=O)N[C@@H](CO)C(=O)N[C@@H](Cc2csc3ccccc23)C(=O)N1C (some centres unmarked) [Example 9053] ({CH2CO}-Y[NMeA]NPHLPWS[Bta][NMeNle][NMeA]R[ξC]G-NH2; thioether N-14) . Its pIC50 was 7.52 to 8.17

----------
Below, each entry is listed alongside its reported pIC50.
Molecular target: LK35.2-hPD-L1 cells / PE-labeled PD-1-Ig (Homo sapiens, UniProt Q9NZQ7)
Construct: expressed in transfected cells; host or cells: LK35.2 mouse B cell line
Sequence (Q9NZQ7 19-290): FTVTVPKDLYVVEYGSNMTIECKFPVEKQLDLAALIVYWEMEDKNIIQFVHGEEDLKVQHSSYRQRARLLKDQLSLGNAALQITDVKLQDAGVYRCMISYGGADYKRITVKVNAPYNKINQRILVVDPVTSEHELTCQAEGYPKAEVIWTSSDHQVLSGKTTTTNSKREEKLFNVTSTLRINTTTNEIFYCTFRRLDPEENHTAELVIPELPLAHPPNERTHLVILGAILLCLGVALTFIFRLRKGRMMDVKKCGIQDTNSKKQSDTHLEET
Assay: LK35.2-hPD-L1 cell binding high-content screening assay
Type: cell-based
Conditions: cluster symbol; cell line of CBA not given (LK35.2-hPD-L1 or 293T-hPD-L1); read-out: CBA IC50 cluster
pIC50: −log10 of the molar value. Positions of bridges follow the written chain, without caps; N, C: chain ends. Non-standard residues stand in square brackets, D forms with d. Residues, ends and D or L forms follow the SMILES beside them. ξ: configuration not given here. Phe(4-CH2NH2) = NCc1ccc(C[C@H](N)C(=O)O)cc1; Phe(4-Cl) = N[C@@H](Cc1ccc(Cl)cc1)C(=O)O; Ala(2-furyl) = N[C@@H](Cc1ccco1)C(=O)O; Phe(4-Me) = Cc1ccc(C[C@H](N)C(=O)O)cc1; Bta = N[C@@H](Cc1csc2ccccc12)C(=O)O; ξPro(4R-OH) = O=C(O)C1C[C@@H](O)CN1; Hyp = O=C(O)[C@@H]1C[C@@H](O)CN1; NMeF = CN[C@@H](Cc1ccccc1)C(=O)O; NMeD = CN[C@@H](CC(=O)O)C(=O)O; NMeNle = CCCC[C@H](NC)C(=O)O; NMeA = CN[C@@H](C)C(=O)O; Orn = NCCC[C@H](N)C(=O)O; Dab = NCC[C@H](N)C(=O)O; Dap = NC[C@H](N)C(=O)O; Sar = CNCC(=O)O

Consider the worked cases shown below.
Compound | pIC50
CCCC[C@H]1C(=O)N(C)CC(=O)N[C@@H](CC(=O)O)C(=O)N[C@@H](C(C)C)C(=O)N(C)[C@@H](Cc2ccccc2)C(=O)N[C@@H](Cc2ccc(CN)cc2)C(=O)N(C)CC(=O)N[C@@H](Cc2csc3ccccc23)C(=O)N[C@@H](Cc2ccc(O)cc2)C(=O)N[C@@H](CC(C)C)C(=O)N[C@H](C(=O)NCC(N)=O)CSCC(=O)N[C@@H](Cc2ccc(Cl)cc2)C(=O)N(C)[C@@H](Cc2ccccc2)C(=O)N1C [Example 3119] ({CH2CO}-[Phe(4-Cl)][NMeF][NMeNle][Sar]DV[NMeF][Phe(4-CH2NH2)][Sar][Bta]YLCG-NH2; thioether N-13) | 7.14 to 8.32
CCCC[C@H]1C(=O)N(C)[C@@H](CCCC)C(=O)N[C@@H](CCCNC(=N)N)C(=O)N[C@H](C(=O)NCC(N)=O)CSCC(=O)N[C@@H](Cc2ccc(O)cc2)C(=O)N(C)[C@@H](CC(=O)O)C(=O)N[C@@H](CC(N)=O)C(=O)N2CCC[C@H]2C(=O)N[C@@H](Cc2cnc[nH]2)C(=O)N[C@@H](CC(C)C)C(=O)N2CCC[C@H]2C(=O)N[C@@H](Cc2c[nH]c3ccccc23)C(=O)N[C@@H](CO)C(=O)N[C@@H](Cc2csc3ccccc23)C(=O)N1C [Example 1190] ({CH2CO}-Y[NMeD]NPHLPWS[Bta][NMeNle][NMeNle]RCG-NH2; thioether N-14) | < 7.13
CCCC[C@H]1C(=O)N(C)[C@@H](CCCC)C(=O)N[C@@H](CCCNC(=N)N)C(=O)N[C@H](C(=O)NCC(N)=O)CSCC(=O)N[C@@H](Cc2ccccc2)C(=O)N(C)[C@@H](C)C(=O)N[C@@H](CC(N)=O)C(=O)N2CCC[C@H]2C(=O)N[C@@H](Cc2c[nH]cn2)C(=O)N[C@@H](CC(C)C)C(=O)N(C)CC(=O)N[C@@H](Cc2c[nH]c3ccccc23)C(=O)N[C@@H](CO)C(=O)N[C@@H](Cc2c[nH]cn2)C(=O)N1C [Example 1004] ({CH2CO}-F[NMeA]NPHL[Sar]WSH[NMeNle][NMeNle]RCG-NH2; thioether N-14) | < 7.13
CCCC[C@H]1C(=O)N(C)CC(=O)N[C@@H](CC(=O)O)C(=O)N[C@@H](C(C)C)C(=O)N(C)[C@@H](Cc2ccccc2)C(=O)N[C@@H](Cc2ccc(O)cc2)C(=O)N(C)CC(=O)N[C@@H](Cc2c[nH]c3ccccc23)C(=O)N[C@@H](Cc2ccc(O)cc2)C(=O)N[C@@H](CC(C)C)C(=O)N[C@H](C(=O)NCC(N)=O)CSCC(=O)N[C@@H](Cc2ccco2)C(=O)N(C)[C@@H](Cc2ccccc2)C(=O)N1C [Example 3101] ({CH2CO}-[Ala(2-furyl)][NMeF][NMeNle][Sar]DV[NMeF]Y[Sar]WYLCG-NH2; thioether N-13) | < 7.13
CCCC[C@H]1C(=O)N(C)[C@@H](CCCC)C(=O)N[C@@H](CCCNC(=N)N)C(=O)N[C@H](C(=O)NCC(N)=O)CSCC(=O)N[C@@H](Cc2ccccc2)C(=O)N(C)[C@@H](C)C(=O)N[C@@H](CC(N)=O)C(=O)N2CCC[C@H]2C(=O)N[C@@H](Cc2cnc[nH]2)C(=O)N[C@@H](CC(C)C)C(=O)N2CCC[C@H]2C(=O)N[C@@H](Cc2c[nH]c3ccccc23)C(=O)N[C@@H](CO)C(=O)N[C@@H](Cc2csc3ccccc23)C(=O)N1C [Example 1015] ({CH2CO}-F[NMeA]NPHLPWS[Bta][NMeNle][NMeNle]RCG-NH2; thioether N-14) | 7.14 to 8.32

Entry under test: CCCC[C@H]1C(=O)N(C)[C@@H](CCCC)C(=O)N[C@@H](CCCN)C(=O)N[C@H](C(=O)NCC(N)=O)CSCC(=O)N[C@@H](Cc2ccc(O)cc2)C(=O)N2CCC[C@H]2C(=O)N[C@@H](CC(=O)O)C(=O)N2CCC[C@H]2C(=O)N[C@@H](CN)C(=O)N[C@@H](CCC(N)=O)C(=O)N2C[C@H](O)C[C@H]2C(=O)N[C@@H](Cc2c[nH]c3ccccc23)C(=O)N[C@@H](CCN)C(=O)N[C@@H](Cc2csc3ccccc23)C(=O)N1C [Example 1187] ({CH2CO}-YPDP[Dap]Q[Hyp]W[Dab][Bta][NMeNle][NMeNle][Orn]CG-NH2; thioether N-14) . Its pIC50 was 7.14 to 8.32

Entry under test: CCCC[C@H]1C(=O)N(C)[C@@H](CCCC)C(=O)N[C@@H](C)C(=O)N[C@H](C(=O)NCC(N)=O)CSCC(=O)N[C@@H](Cc2ccc(O)cc2)C(=O)N(C)[C@@H](C)C(=O)N[C@@H](CC(=O)O)C(=O)N2CCC[C@H]2C(=O)N[C@@H](Cc2c[nH]cn2)C(=O)N[C@@H](CCCCN)C(=O)N2C[C@H](O)CC2C(=O)N[C@@H](Cc2c[nH]c3ccccc23)C(=O)N[C@@H](CO)C(=O)N[C@@H](Cc2c[nH]c3ccccc23)C(=O)N1C (stereo partly drawn) [Example 1202] ({CH2CO}-Y[NMeA]DPHK[ξPro(4R-OH)]WSW[NMeNle][NMeNle]ACG-NH2; thioether N-14) . Its pIC50 was 8.33 to 9.80

Entry under test: CCCC[C@H]1C(=O)N(C)CC(=O)N[C@@H](CC(=O)O)C(=O)N[C@@H](C(C)C)C(=O)N[C@@H](Cc2ccc(C)cc2)C(=O)N[C@@H](Cc2ccc(O)cc2)C(=O)N(C)CC(=O)N[C@@H](Cc2c[nH]c3ccccc23)C(=O)N[C@@H](Cc2ccc(O)cc2)C(=O)N[C@@H](CC(C)C)C(=O)N[C@H](C(=O)NCC(N)=O)CSCC(=O)N[C@@H](Cc2ccccc2)C(=O)N(C)[C@@H](Cc2ccccc2)C(=O)N1C [Example 3135] ({CH2CO}-F[NMeF][NMeNle][Sar]DV[Phe(4-Me)]Y[Sar]WYLCG-NH2; thioether N-13) . Its pIC50 was < 7.13
